# system: Kindlin-3 (full-length, C-terminal His6 tag removed, for NMR) (mouse, UniProt Q8K1B8 1-665)
# Sequence (Q8K1B8 whole entry): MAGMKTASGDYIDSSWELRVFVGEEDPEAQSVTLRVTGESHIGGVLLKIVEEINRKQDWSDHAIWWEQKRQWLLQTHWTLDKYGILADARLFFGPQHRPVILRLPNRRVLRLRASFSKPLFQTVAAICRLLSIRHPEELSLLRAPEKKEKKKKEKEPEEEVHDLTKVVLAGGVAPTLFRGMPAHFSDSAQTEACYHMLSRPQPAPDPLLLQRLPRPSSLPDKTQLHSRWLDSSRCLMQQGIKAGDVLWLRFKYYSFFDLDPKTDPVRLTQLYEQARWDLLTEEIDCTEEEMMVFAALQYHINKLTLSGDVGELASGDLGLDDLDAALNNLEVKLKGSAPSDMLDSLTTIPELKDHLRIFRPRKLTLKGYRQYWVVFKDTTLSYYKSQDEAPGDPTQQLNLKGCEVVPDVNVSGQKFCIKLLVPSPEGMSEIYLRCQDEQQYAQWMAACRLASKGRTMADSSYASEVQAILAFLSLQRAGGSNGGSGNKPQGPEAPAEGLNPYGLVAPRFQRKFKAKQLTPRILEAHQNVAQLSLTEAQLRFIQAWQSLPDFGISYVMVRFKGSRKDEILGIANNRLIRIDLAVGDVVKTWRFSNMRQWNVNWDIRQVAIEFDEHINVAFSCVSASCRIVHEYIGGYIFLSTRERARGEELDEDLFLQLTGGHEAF
# testMethodNotes: NMR titration
pKd: −log10 of the molar value. Where no end group is shown, it is not given here.
parameterMeasured: pKd

INSERT INTO assay_data (binder, parametermeasured, reportedmeasurement) VALUES
  ('KLLMIIHDRREFAKFEKEKMNAKWDTQENPIYKSPINNFKNPNYGRKAGL (domain or fragment, UniProt P05556-5 752-801, looked up, also: uniformly 15N-labelled) [integrin β1D cytoplasmic tail]', 'pKd', '~4.30'),
  ('KLLMIIHDRREFAKFEKEKMNAKWDTGENPIYKSAVTTVVNPKYEGK (domain or fragment, UniProt P05556-1 752-798, looked up, also: uniformly 15N-labelled) [integrin β1A cytoplasmic tail]', 'pKd', '~4.30');

Data credit: paper PMC3488048
